Just for reference, PubChem BioAssay AID1159580 is where these values come from.

# assay-procedure: chemical genetic growth profiling, strain panel (AID 1159580);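 further: tested at 20 µM; growth read once vehicle control cultures reached saturation at 30 °C; 1 = growth at the plate median or of vehicle wells; lower values mean less growth of the strain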
# assay-setup: S. cerevisiae deletion strains, growth OD, locus YKL203C, strain TOR2
The whole screen tested about 5,500 compounds, of which about 2,000 (36%) were called active. Roughly 18% stayed inconclusive and do not appear here. No stated cut-off is given here; in the data, active means normalized growth mostly below about 0.91 (no sharp cut-off); inconclusive means no clear call, values can overlap the other calls; inactive means mostly above about 0.92. The list shows a part of the results.
The reply should name one outcome from active, inactive

Record request — test call for O=S(=O)(Nc1cccc(CCc2ccccn2)c1)c1cc(Cl)c(Cl)cc1Cl
inactive

Record request — test call for Cc1nn(Cc2cccc(C(=O)Nc3ccc(Cl)cc3)c2)c(C)c1Br
inactive

Record request — test call for O=c1c(Sc2ccc(Cl)cc2)c(Sc2ccc(Cl)cc2)c1=O
active

Record request — test call for O=C(Oc1ccc(C(F)(F)F)cc1[N+](=O)[O-])c1cccc(Cl)c1
inactive

Record request — test call for Cc1ccccc1C(=O)Oc1ccc(C(F)(F)F)cc1[N+](=O)[O-]
inactive

Record request — test call for Cc1nnsc1C(=O)Nc1cc(C(F)(F)F)cc(C(F)(F)F)c1
inactive

Record request — test call for COc1ccc(CN2CSC(=S)N(Cc3ccc(OC)cc3)C2)cc1
inactive

Record request — test call for Cc1nnsc1C(=O)NNc1ccc(F)cc1F
inactive

Record request — test call for CCOC(=O)CSC(=S)NCc1ccc(C)cc1
inactive

Record request — test call for COc1cc(NC(=S)N(C)C)c(OC)cc1Cl
inactive

Record request — test call for Cc1cc(Cl)ccc1NNC(=O)c1snnc1C
inactive

Record request — test call for Cc1cc(C(=O)Nc2ccc(Cl)cc2)nn1C(C)(C)C
inactive

Record request — test call for CSC1=NNC(c2nn(C)cc2Cl)S1 (stereo not given)
active

Record request — test call for Cc1ccc(OCC2SCCN2C(=O)c2ccc(C(F)(F)F)cc2)c([N+](=O)[O-])c1 (stereo not given)
inactive

Record request — test call for Cc1ccc(/C=C2\CSc3ccc(F)cc3C2=O)cc1
inactive

Record request — test call for COc1cc2c(cc1OC)C(C)N(C(=O)c1sc3ccccc3c1Cl)CC2 (stereo not given)
inactive

Record request — test call for N#Cc1ccc(S(=O)(=O)Nc2ccccc2Oc2ccc(Cl)cc2Cl)cc1
inactive

Record request — test call for COc1cc(NC(=S)NNS(=O)(=O)c2ccc(C)cc2)c(OC)cc1Cl
inactive

Record request — test call for O=S(=O)(Nc1cccc2nsnc12)c1cc(Cl)sc1Cl
inactive

Record request — test call for CC(C)(C)CN/C(C#N)=C(/C#N)NCc1cccc(Cl)c1
inactive

====

# assay-procedure: chemical genetic growth profiling, strain panel (AID 1159580);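 further: tested at 20 µM; growth read once vehicle control cultures reached saturation at 30 °C; 1 = growth at the plate median or of vehicle wells; lower values mean less growth of the strain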
# assay-setup: S. cerevisiae deletion strains, growth OD, locus YML124C, strain tub3, hits give low values
About 2,000 (36%) of roughly 5,500 compounds were called active. Another 18% or so got no clear call; they are omitted. The list shows a part of the results.
value-type: normalized growth
Answer as a number with no unit attached.

Look up normalized growth of CC1=C(/C=C/C(C)=C/C=C/C(C)=C/C=C/C=C(C)/C=C/C=C(C)/C=C/C2=C(C)C(=O)C(O)CC2(C)C)C(C)(C)CC(O)C1=O (stereo not given) and report it.
0.991

Look up normalized growth of CCCCCCCCNC(C)C(O)c1ccc(SC(C)C)cc1 (stereo not given) and report it.
0.0561

Look up normalized growth of CN1CCC(=C2c3ccccc3CC(=O)c3sccc32)CC1 and report it.
1.01

Look up normalized growth of C=Cc1c2[nH]c(c1C)C=c1[nH]c(c(C)c1C=C)=CC1N=C(C=c3[nH]c(c(C)c3CCC(=O)O)=C2)C(CCC(=O)O)=C1C (stereo not given) and report it.
0.987

Look up normalized growth of CNC(C)[C@H](O)c1ccccc1 (stereo not given in full) and report it.
0.991

Look up normalized growth of CC1=C(/C=C/C(C)=C/C=C/C(C)=C/C=C/C=C(C)/C=C/C=C(C)/C=C/C23OC2(C)CC(O)CC3(C)C)C(C)(C)CC(O)C1 (stereo not given) and report it.
1

Look up normalized growth of COc1cc(NC(C)CCCN)c2ncccc2c1 (stereo not given) and report it.
1.01

Look up normalized growth of CC(NCCc1ccc(O)cc1)C(O)c1ccc(O)cc1 (stereo not given) and report it.
0.99

Look up normalized growth of CCN(CC)CCCC(C)Nc1ccnc2cc(Cl)ccc12 (stereo not given) and report it.
1

Look up normalized growth of CCOC(=O)C(Cc1ccc(O)cc1)NC(C)=O (stereo not given) and report it.
0.999
